Target: UniProtKB P14416
Sequence (P14416 1-414 isoform P14416-2): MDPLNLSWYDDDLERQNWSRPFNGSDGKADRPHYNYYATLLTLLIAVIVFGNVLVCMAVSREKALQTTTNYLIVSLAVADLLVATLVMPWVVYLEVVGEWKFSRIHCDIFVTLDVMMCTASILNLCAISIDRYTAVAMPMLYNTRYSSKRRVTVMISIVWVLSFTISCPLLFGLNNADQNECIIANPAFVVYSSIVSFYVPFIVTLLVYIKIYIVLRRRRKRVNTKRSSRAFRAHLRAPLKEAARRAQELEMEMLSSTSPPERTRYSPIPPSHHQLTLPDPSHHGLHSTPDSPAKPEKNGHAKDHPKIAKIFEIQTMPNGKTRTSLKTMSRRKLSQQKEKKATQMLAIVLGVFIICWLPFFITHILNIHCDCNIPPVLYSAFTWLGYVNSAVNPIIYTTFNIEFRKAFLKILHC
The reader will find reported pKi values listed item by item below.
Would you please state pKi, meaning minus log10 of the concentration in mol/L, as a bare number?

Worked examples, 4 compounds total:
CCCN(CCc1cccs1)[C@@H]1CCc2cccc(O)c2C1 [Compound 1a] | 6.59
CCCN(CCc1ccc(O)cc1)C1CCc2cccc(O)c2C1 (centres unmarked) [Compound 5] | 7.07
CCCN(CCc1cc2ccc1CCc1ccc(cc1)CC2)C1CCc2cccc(O)c2C1 (centres unmarked) [Compound 13] | 6.19
CCCN(CCc1cc(C)ccc1C)C1CCc2cccc(O)c2C1 (centres unmarked) [Compound 7] | 7.05

As a next step, examine the compound that follows.
// map CCCN(CCc1ccccc1)C1CCc2cccc(O)c2C1 (centres unmarked) [Compound 3] to recorded pKi (system: UniProtKB P14416)
6.77
